Target: UniProt:P19367
Sequence (P19367 whole entry, the tested form may be a part): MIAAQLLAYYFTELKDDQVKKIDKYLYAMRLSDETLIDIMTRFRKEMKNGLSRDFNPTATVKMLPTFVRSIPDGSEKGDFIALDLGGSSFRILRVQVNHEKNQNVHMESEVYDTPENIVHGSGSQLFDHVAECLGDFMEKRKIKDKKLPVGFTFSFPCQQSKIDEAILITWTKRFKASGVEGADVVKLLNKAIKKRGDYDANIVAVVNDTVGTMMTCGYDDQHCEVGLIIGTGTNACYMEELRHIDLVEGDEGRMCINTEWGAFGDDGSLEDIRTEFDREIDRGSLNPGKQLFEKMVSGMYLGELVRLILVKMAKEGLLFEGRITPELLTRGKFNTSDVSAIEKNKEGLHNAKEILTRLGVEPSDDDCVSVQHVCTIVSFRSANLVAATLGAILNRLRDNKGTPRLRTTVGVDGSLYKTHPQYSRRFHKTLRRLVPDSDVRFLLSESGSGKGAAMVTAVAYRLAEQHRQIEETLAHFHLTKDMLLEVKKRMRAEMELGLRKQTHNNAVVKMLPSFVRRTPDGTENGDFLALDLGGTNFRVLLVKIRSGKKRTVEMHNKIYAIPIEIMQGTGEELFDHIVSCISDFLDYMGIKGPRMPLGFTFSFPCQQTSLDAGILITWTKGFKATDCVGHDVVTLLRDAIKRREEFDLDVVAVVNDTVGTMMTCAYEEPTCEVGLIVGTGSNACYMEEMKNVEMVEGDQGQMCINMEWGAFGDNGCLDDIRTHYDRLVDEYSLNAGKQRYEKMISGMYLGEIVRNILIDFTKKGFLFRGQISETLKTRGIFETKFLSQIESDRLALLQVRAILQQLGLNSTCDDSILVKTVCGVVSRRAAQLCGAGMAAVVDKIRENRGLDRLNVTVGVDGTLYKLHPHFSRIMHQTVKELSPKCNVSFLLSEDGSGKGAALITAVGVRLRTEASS
Experiment: SAR analysis of small molecule inhibitors of hexokinase domain containing I (HKDC1) in the hexokinase 1 selectivity assay. [Related pubchem assays (depositor defined):AID493160, AID493190]
Type: functional
Calls of active or inactive are those of the source. How the calls were made is not given here.
QUANTITY MEASURED: IC50

For this compound ( `Cc1ccc(S(=O)(=O)Nc2cc(SCC(=O)O)c(O)c3ccccc23)cc1` ), measured IC50 is 50.6 µM (inactive)

So for `O=c1c2ccccc2nc(/C=C/c2ccccc2)n1CCc1ccccc1` , the logged IC50 turned out to be > 80 µM (inactive)

Input `O=S(=O)(Nc1ccc(O)c2ccccc12)c1ccc(Cl)cc1` . Output IC50: > 80 µM (inactive)

Form field IC50, entry `Cc1ccc(C)c(S(=O)(=O)Nc2cccc3ccccc23)c1` : > 80 µM (inactive)

Entry `O=c1c2ccccc2nc(/C=C/c2cccnc2)n1Cc1ccccc1` ; IC50 = > 80 µM (inactive)
